system: hepatic stage of P. berghei; assay: In vitro activity against P. berghei hepatic stages (luciferase-expressing sporozoites in Huh-7 cells, bioluminescence); assay type: cell-based, Plasmodium berghei; details: Plasmodium berghei; hepatic stage, Huh-7 cells, parasite load 48 h post-infection; read-out: IC50 P. berghei
IC50 by entry:
Property: IC50 (nM)

INSERT INTO measurements (compound, property, endpoint_unit, bound_operator, result) VALUES
  ('COc1c2c(cc3c1OCO3)[C@]13C=C[C@H](OC)C[C@H]1N(C2)C[C@H]3OC(=O)c1cccc([N+](=O)[O-])c1 [28p, 11-O-(3-Nitrobenzoyl)ambelline]', 'IC50', 'nM', '=', 1530),
  ('CCOc1cc(OCC)cc(C(=O)O[C@@H]2CN3Cc4c(cc5c(c4OC)OCO5)[C@@]24C=C[C@H](OC)C[C@@H]34)c1 [28o, 11-O-(3,5-Diethoxybenzoyl)ambelline]', 'IC50', 'nM', '=', 316),
  ('COc1cc(C(=O)O[C@@H]2CN3Cc4c(cc5c(c4OC)OCO5)[C@@]24C=C[C@H](OC)C[C@@H]34)cc(OC)c1OC [28n, 11-O-(3,4,5-Trimethoxybenzoyl)ambelline]', 'IC50', 'nM', '=', 47),
  ('COc1c2c(cc3c1OCO3)[C@]13C=C[C@H](OC)C[C@H]1N(C2)C[C@H]3OC(=O)c1ccc([N+](=O)[O-])cc1 [28q, 11-O-(4-Nitrobenzoyl)ambelline]', 'IC50', 'nM', '=', 1200),
  ('COc1c2c(cc3c1OCO3)[C@]13C=C[C@H](OC)C[C@H]1N(C2)C[C@H]3OC(=O)c1ccc(C)c([N+](=O)[O-])c1 [28r, 11-O-(4-Methyl-3-nitrobenzoyl)ambelline]', 'IC50', 'nM', '=', 410),
  ('COc1ccc(C(=O)O[C@@H]2CN3Cc4c(cc5c(c4OC)OCO5)[C@@]24C=C[C@H](OC)C[C@@H]34)cc1OC [28l, 11-O-(3,4-Dimethoxybenzoyl)ambelline]', 'IC50', 'nM', '=', 147),
  ('COc1c2c(cc3c1OCO3)[C@]13C=C[C@H](OC)C[C@H]1[N@](C2)C[C@H]3OC(C)=O [28a, 11-O-Acetylambelline]', 'IC50', 'nM', '>', 10000),
  ('COc1c2c(cc3c1OCO3)[C@]13C=C[C@H](OC)C[C@H]1N(C2)C[C@H]3OC(=O)c1cc(C)cc(C)c1 [28h, 11-O-(3,5-Dimethylbenzoyl)ambelline]', 'IC50', 'nM', '=', 100),
  ('COc1ccc(C(=O)O[C@@H]2CN3Cc4c(cc5c(c4OC)OCO5)[C@@]24C=C[C@H](OC)C[C@@H]34)cc1 [28k, 11-O-(4-Methoxybenzoyl)ambelline]', 'IC50', 'nM', '=', 451),
  ('COc1cc(OC)cc(C(=O)O[C@@H]2CN3Cc4c(cc5c(c4OC)OCO5)[C@@]24C=C[C@H](OC)C[C@@H]34)c1 [28m, 11-O-(3,5-Dimethoxybenzoyl)ambelline]', 'IC50', 'nM', '=', 48),
  ('COc1ccccc1C(=O)O[C@@H]1CN2Cc3c(cc4c(c3OC)OCO4)[C@@]13C=C[C@H](OC)C[C@@H]23 [28i, 11-O-(2-Methoxybenzoyl)ambelline]', 'IC50', 'nM', '=', 2400);

# credit: paper PMC10056443
